Source listed as the CombiSolv-Exp solvation set (Vermeire and Green 2021).

Readings of solvation free energy, 298 K for the listed molecules
Test: solvent given as SMILES
Settings: in CN1CCCC1=O
A number alone suffices; assume kcal/mol.

These solved cases illustrate the format of a correct answer.
[[record]]
molecule = "FC(Cl)C(F)(F)F (stereo unspecified)"
endpointunit = "kcal/mol"
recordedresult = -2.39

[[record]]
molecule = "C=CC"
endpointunit = "kcal/mol"
recordedresult = -1.24

[[record]]
molecule = "CCCCCCCC"
endpointunit = "kcal/mol"
recordedresult = -3.77

[[record]]
molecule = "CCCCC"
endpointunit = "kcal/mol"
recordedresult = -2.18

[[record]]
molecule = "CCCCCCCCC"
endpointunit = "kcal/mol"
recordedresult = -4.3

[[record]]
molecule = "C=C(C)C"
endpointunit = "kcal/mol"
recordedresult = -1.8

[[record]]
molecule = "CCOC(C)=O"
endpointunit = "kcal/mol"
recordedresult = -4.16

[[record]]
molecule = "FC(F)(F)F"
endpointunit = "kcal/mol"
recordedresult = 1.8

[[record]]
molecule = "CC=C(C)C"
endpointunit = "kcal/mol"
recordedresult = -2.51

[[record]]
molecule = "CI"
endpointunit = "kcal/mol"
recordedresult = -3.77


Attention now shifts to the item below.
-- ask Given the molecule `CC(F)F` , what is its reported solvation free energy, 298 K?
-- reply -2.02

* * *

Test: solvent given as SMILES
Conditions: in CCC(C)O
# if measured solvation free energy, 298 K < -7 kcal/mol: met  # else: not met

[[record]]
smilesnotation = "O=C(O)c1cccc([N+](=O)[O-])c1C(=O)O"
category = "met"


-- ask Below -7 kcal/mol on solvation free energy, 298 K? Entry `FC(F)(F)F`
-- reply not met

-- ask For `CCCCC` then?
-- reply not met

-- ask For `COc1ccc(C(=O)O)cc1` then?
-- reply met

-- ask For `Cc1cc(C)c(C)cc1C` then?
-- reply not met

* * *

Readings of solvation free energy, 298 K for the listed compounds
Experiment: solvent given as SMILES
Conditions: in Cc1ccccn1
Put your answer as a value accompanied by its unit after it.

These solved cases illustrate the format of a correct answer.
[[record]]
smilesnotation = "CC(C)C(C)C(C)C"
recordedresult = "-4.45 kcal/mol"

[[record]]
smilesnotation = "CCCCC"
recordedresult = "-2.82 kcal/mol"

[[record]]
smilesnotation = "CCCCCCCCC"
recordedresult = "-5.45 kcal/mol"


Attention now shifts to the item below.
-- ask Given the compound `CCCCCCCC` , what is its reported solvation free energy, 298 K?
-- reply -4.78 kcal/mol

* * *

Experiment: solvent given as SMILES
Conditions: in CC(C)CCO
readoutType: solvation free energy, 298 K (kcal/mol)
A number alone suffices; assume kcal/mol.

These solved cases illustrate the format of a correct answer.
[[record]]
smilesnotation = "CCCCCCCC"
readouttype = "solvation free energy, 298 K"
recordedresult = -4.61

[[record]]
smilesnotation = "COc1ccc(N)cc1"
readouttype = "solvation free energy, 298 K"
recordedresult = -8.92

[[record]]
smilesnotation = "CC(C)C(C)C(C)C"
readouttype = "solvation free energy, 298 K"
recordedresult = -4.31

[[record]]
smilesnotation = "O=C(O)c1cccc([N+](=O)[O-])c1"
readouttype = "solvation free energy, 298 K"
recordedresult = -11.8

[[record]]
smilesnotation = "Cc1cc(C)c(C)cc1C"
readouttype = "solvation free energy, 298 K"
recordedresult = -6.63


-- ask Given the molecule `Brc1ccc(Br)cc1` , what is its reported solvation free energy, 298 K?
-- reply -7.01

-- ask For `c1ccc2c(c1)Sc1ccccc1S2` then?
-- reply -11.3

-- ask For `CCCCCCCCC` then?
-- reply -5.21

-- ask For `CC(F)F` then?
-- reply -1.3

-- ask For `NC(=O)c1ccccc1O` then?
-- reply -11.9

-- ask For `CCI` then?
-- reply -3.75

-- ask For `CCCCCC` then?
-- reply -3.31

-- ask For `c1ccc2cc3ccccc3cc2c1` then?
-- reply -9.93

-- ask For `c1ccc(-c2ccccc2)cc1` then?
-- reply -8.16

-- ask For `CCO` then?
-- reply -4.8

-- ask For `c1cc2ccc3cccc4ccc(c1)c2c34` then?
-- reply -11.4

-- ask For `CC(C)CCC(C)C` then?
-- reply -4.21

* * *

Readings of solvation free energy, 298 K for the listed compounds
Assay: solvent given as SMILES
Details: in CCCO
A number alone suffices; assume kcal/mol.

[[record]]
compound = "c1ccc2ccccc2c1"
readouttype = "solvation free energy, 298 K"
recordedresult = -7.08

[[record]]
compound = "C[N+](=O)[O-]"
readouttype = "solvation free energy, 298 K"
recordedresult = -3.94

[[record]]
compound = "CCCC(=O)OC"
readouttype = "solvation free energy, 298 K"
recordedresult = -4.47

[[record]]
compound = "CC(=O)CC(C)=O"
readouttype = "solvation free energy, 298 K"
recordedresult = -5.03

[[record]]
compound = "C1CCOC1"
readouttype = "solvation free energy, 298 K"
recordedresult = -4.02


-- ask Given the compound `CCc1ccc2c(c1)C(=O)c1ccccc1C2=O` , what is its reported solvation free energy, 298 K?
-- reply -12.1

-- ask For `CC(C)CCC(C)C` then?
-- reply -4.07

-- ask For `Nc1ccc(C(=O)O)cc1` then?
-- reply -14.3

-- ask For `CCCCCC` then?
-- reply -3.16

-- ask For `CC(C)C(C)C(C)C` then?
-- reply -4.1

-- ask For `c1ccc(-c2ccccc2)cc1` then?
-- reply -8.25

-- ask For `CCCCC` then?
-- reply -2.58

* * *

Assay: solvent given as SMILES
Details: in O
Readings of solvation free energy, 298 K for the listed compounds

These solved cases illustrate the format of a correct answer.
[[record]]
compound = "CCCCCCl"
recordedresult = "-0.06 kcal/mol"

[[record]]
compound = "c1ccncc1"
recordedresult = "-4.69 kcal/mol"

[[record]]
compound = "Clc1cc(Cl)c(Cl)c(Cl)c1Cl"
recordedresult = "-1.69 kcal/mol"

[[record]]
compound = "Clc1cc(-c2cc(Cl)c(Cl)c(Cl)c2)cc(Cl)c1Cl"
recordedresult = "-4.11 kcal/mol"

[[record]]
compound = "CNc1ccccc1"
recordedresult = "-4.69 kcal/mol"


-- ask Given the compound `CCCCC#N` , what is its reported solvation free energy, 298 K?
-- reply -3.49 kcal/mol

-- ask For `CC(C)(C)C(=O)CC(=O)C(C)(C)C` then?
-- reply -4.43 kcal/mol

-- ask For `CCc1cccc2ccccc12` then?
-- reply -2.3 kcal/mol

-- ask For `CCCCCCCCC=CCCCCCCCCCCCC(=O)OC` then?
-- reply -1.09 kcal/mol

-- ask For `CCCCSP(=O)(O)SCCCC` then?
-- reply -8.03 kcal/mol

-- ask For `Oc1cccc2cccnc12` then?
-- reply -6.06 kcal/mol

-- ask For `CCOP(=S)(OCC)SCSc1ccc(Cl)cc1` then?
-- reply -6.5 kcal/mol

-- ask For CC(=O)OC(C)(C)C1CC=C(C)CC1 (stereo not given) then?
-- reply -3.41 kcal/mol

-- ask For `C=CC` then?
-- reply 1.22 kcal/mol

-- ask For `CCCCC(C)(C)C` then?
-- reply 3.02 kcal/mol

-- ask For `O=C(CC(=O)C(F)(F)F)c1cccs1` then?
-- reply -6.15 kcal/mol

-- ask For `CCOP(=S)(OCC)Oc1cc(C)nc(C(C)C)n1` then?
-- reply -6.48 kcal/mol

-- ask For `CC(C)OC(=O)c1ccccc1C(=O)OC(C)C` then?
-- reply -7.42 kcal/mol

-- ask For `CCCCCCCCCCCCCCCC(=O)OCC` then?
-- reply -7.23 kcal/mol

-- ask For `Cc1ccc(CN)cc1` then?
-- reply -6.07 kcal/mol

-- ask For `CC(=O)OC(C)OC(C)=O` then?
-- reply -4.97 kcal/mol

-- ask For C=C1C=CC(C(C)C)CC1 (stereo not given) then?
-- reply 0.26 kcal/mol

-- ask For `CC(C)CC(=O)O` then?
-- reply -6.09 kcal/mol

-- ask For `ClC1CCCCC1` then?
-- reply -0.93 kcal/mol

* * *

Experiment: solvent given as SMILES
Details: in COC(C)=O
# if measured solvation free energy, 298 K < -10 kcal/mol: class 1  # else: class 0

Some entries whose results are on file:
[[record]]
molecule = "CCCCCCCCCCCCCCCCCCCCCCC"
category = "class 1"

[[record]]
molecule = "CCCCCCCCCCCCCCCCCCCCCC"
category = "class 1"

[[record]]
molecule = "C#C"
category = "class 0"

[[record]]
molecule = "CCC(C)C(=O)OC1CC(C)C=C2C=CC(C)C(CCC3CC(O)CC(=O)O3)C21 (configuration not stated)"
category = "class 1"

[[record]]
molecule = "CCOCCO"
category = "class 0"


-- ask Below -10 kcal/mol on solvation free energy, 298 K? Entry `CC(C)=O`
-- reply class 0

-- ask For `CCCCC` then?
-- reply class 0

-- ask For `CCCCCCCCC` then?
-- reply class 0

-- ask For `O=S(=O)(c1ccccc1)c1ccccc1` then?
-- reply class 1
